For each of the compounds below, state its growth inhibition.
# procedure_details: NCI Yeast Anticancer Drug Screen. Data for the sgs1 mgt1 strain (AID 161);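 note: 0% = growth of cultures given vehicle only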
# measurement_setup: S. cerevisiae sgs1 mgt1 strain, at 50.0 µM (retest, dose inferred, filed as 5.0), stronger effect = higher value
The panel holds about 79,000 compounds, 15% with a hit somewhere; the sample as a whole holds those more often.
# output: bare number, implied unit %

Prompt line: Returns the measured growth inhibition for the input compound. Input: `O=S(=O)(c1cc(Cl)ccc1O)c1cc(Cl)ccc1O`
Response line: 100

Prompt line: Returns the measured growth inhibition for the input compound. Input: `CCC(C)(c1ccc(O)c(C)c1)c1ccc(O)c(C)c1`
Response line: 98

Prompt line: Returns the measured growth inhibition for the input compound. Input: `[N-]=[N+]=NC(c1ccccc1)(c1ccccc1)c1ccccc1`
Response line: 84

Prompt line: Returns the measured growth inhibition for the input compound. Input: `COC(=O)/C=C1/OC(c2ccc(Br)cc2)=C(Br)C1=O`
Response line: 16

Prompt line: Returns the measured growth inhibition for the input compound. Input: `O=C1c2ccccc2CCC1(Br)Br`
Response line: 99

Prompt line: Returns the measured growth inhibition for the input compound. Input: `OB(O)c1ccccc1C#Cc1ccccc1B(O)O`
Response line: 44

Prompt line: Returns the measured growth inhibition for the input compound. Input: `O=C1C=CC(=O)N1c1ccc(N2C(=O)C=CC2=O)cc1`
Response line: 100

Prompt line: Returns the measured growth inhibition for the input compound. Input: `COc1cc(CNc2ccc(C(C)C)cc2)cc(OC)c1OC`
Response line: 25

Prompt line: Returns the measured growth inhibition for the input compound. Input: `O=Nn1c2ccccc2c2cc([N+](=O)[O-])ccc21`
Response line: 27

Prompt line: Returns the measured growth inhibition for the input compound. Input: `O=C(N/N=C\c1c(Cl)cccc1Cl)N/N=C/c1c(Cl)cccc1Cl`
Response line: 29

Prompt line: Returns the measured growth inhibition for the input compound. Input: `Oc1ccccc1N=Cc1ccc(Cl)cc1`
Response line: 24

Prompt line: Returns the measured growth inhibition for the input compound. Input: `CCN(CC)CCNC(=O)c1nn(-c2ccc(Cl)cc2)c2c1CCc1cc(OC)ccc1-2`
Response line: 80

Prompt line: Returns the measured growth inhibition for the input compound. Input: `Cc1cc(N=C2C=CC(=[N+](C)C)C=C2)c(N)cc1N`
Response line: 65

Prompt line: Returns the measured growth inhibition for the input compound. Input: `O=C(Nc1cccc(C(F)(F)F)c1)Oc1ccc(Cl)cc1C(=O)c1ccccc1`
Response line: 98

Prompt line: Returns the measured growth inhibition for the input compound. Input: `CN(N=O)c1ccc(/C=C/c2ccnc3ccccc23)cc1`
Response line: 43

Prompt line: Returns the measured growth inhibition for the input compound. Input: `O=C(O)c1cccc2cccc(-c3c4ccc(=O)cc-4oc4cc(O)ccc34)c12`
Response line: 95

Prompt line: Returns the measured growth inhibition for the input compound. Input: `Cc1ccc(N=Nc2ccc(O)c(C)c2)cc1`
Response line: 91

Prompt line: Returns the measured growth inhibition for the input compound. Input: `O=Nc1ccc(Nc2ccccc2)cc1`
Response line: 13

Prompt line: Returns the measured growth inhibition for the input compound. Input: `COC(=O)c1oc([N+](=O)[O-])c(Cl)c1Cl`
Response line: 99

Prompt line: Returns the measured growth inhibition for the input compound. Input: `BrCc1ccccc1C(c1ccccc1)c1ccccc1`
Response line: 98

Prompt line: Returns the measured growth inhibition for the input compound. Input: `C=C1N(C)c2ccc(Cl)cc2C1(C)C`
Response line: 88

Prompt line: Returns the measured growth inhibition for the input compound. Input: `C/C(=N\NC(=S)NNC(=S)N(C)c1ccccc1)c1ccccn1`
Response line: 98

Prompt line: Returns the measured growth inhibition for the input compound. Input: `Oc1ccc(Br)cc1C=NC1CCCCC1`
Response line: 99

Prompt line: Returns the measured growth inhibition for the input compound. Input: `O=C1c2cccc3cc([N+](=O)[O-])cc(c23)C(=O)N1CCN1CCCC1`
Response line: 12

Prompt line: Returns the measured growth inhibition for the input compound. Input: `CSc1s[s+]c(SC)c1-c1ccccc1`
Response line: 73

Prompt line: Returns the measured growth inhibition for the input compound. Input: `Clc1cc(-c2ccccc2)nc2ccccc12`
Response line: 88

Prompt line: Returns the measured growth inhibition for the input compound. Input: OC(CN1CCCCC1)c1cc(Cl)c(Cl)c(Cl)c1 (stereo not given)
Response line: 49

Prompt line: Returns the measured growth inhibition for the input compound. Input: CC1=CC2C(C(C)C)CC1C1C(=O)OC(=O)C21 (stereo not given)
Response line: 25

Prompt line: Returns the measured growth inhibition for the input compound. Input: `COc1ccc(/C=C2\SC(=S)N(C=C3C(=O)NC(=S)NC3=O)C2=O)cc1OC`
Response line: 76

Prompt line: Returns the measured growth inhibition for the input compound. Input: `CC(=O)C1=C(C)O/C(=C/c2cccc(Cl)c2)C1=O`
Response line: 60

Prompt line: Returns the measured growth inhibition for the input compound. Input: `O=c1ccc(N=Nc2ccccc2)ccc1O`
Response line: 99

Prompt line: Returns the measured growth inhibition for the input compound. Input: CC1OC(OC2CCCc3c(O)c4c(c(O)c32)C(=O)c2ccccc2C4=O)CC(N)C1O (stereo not given)
Response line: 98

Prompt line: Returns the measured growth inhibition for the input compound. Input: `O=C(/C=C/c1cccc(Br)c1)c1ccc(Cl)cc1`
Response line: 60

Prompt line: Returns the measured growth inhibition for the input compound. Input: `Oc1ccc(C=Nc2ccccc2O)cc1`
Response line: 42

Prompt line: Returns the measured growth inhibition for the input compound. Input: `CC(C)(C)c1ccc(O)c(C(c2ccc([N+](=O)[O-])cc2)c2cc(C(C)(C)C)ccc2O)c1`
Response line: 93

Prompt line: Returns the measured growth inhibition for the input compound. Input: `O=Cc1coc2ccccc2c1=O`
Response line: 98

Prompt line: Returns the measured growth inhibition for the input compound. Input: `CN(C)CCN1C(=O)c2cccc3cc([N+](=O)[O-])cc(c23)C1=O`
Response line: 51

Prompt line: Returns the measured growth inhibition for the input compound. Input: `CCc1nc(N)nc(N)c1-c1ccc(NCCCCCCN)c([N+](=O)[O-])c1`
Response line: -16

Prompt line: Returns the measured growth inhibition for the input compound. Input: `Cc1onc(-c2ccccc2Cl)c1C1=N/C(=C/c2cc(Cl)cc(Cl)c2O)C(=O)O1`
Response line: 42

Prompt line: Returns the measured growth inhibition for the input compound. Input: `COc1cc2c(cc1C[N+](C)(C)CSc1ccccc1)-c1ccccc1CC2`
Response line: 99

====

For each of the compounds below, state its growth inhibition.
# procedure_details: NCI Yeast Anticancer Drug Screen. Data for the mgt1 strain (AID 153)
# measurement_setup: S. cerevisiae mgt1 mutant growth inhibition; at 100.0 µM; stronger effect = higher value
Compounds without any hit were thinned out: in the full panel of roughly 79,000, 15% have a hit.
# output: bare number, implied unit %

Prompt line: Returns the measured growth inhibition for the input compound. Input: `S=c1[nH]nc(-c2ccc(Cl)cc2)s1`
Response line: 97

Prompt line: Returns the measured growth inhibition for the input compound. Input: `COc1ccc2c(c1)[nH]c1c(/C=C/c3ccccc3)nccc12`
Response line: 98

Prompt line: Returns the measured growth inhibition for the input compound. Input: O=C1C(Cl)=C(Cl)C(Cl)(Cl)C(Cl)C1(Cl)Cl (stereo not given)
Response line: 99

Prompt line: Returns the measured growth inhibition for the input compound. Input: `COc1cc2c(cc1C[N+](C)(C)CSc1ccccc1)-c1ccccc1CC2`
Response line: 99

Prompt line: Returns the measured growth inhibition for the input compound. Input: `CN(C)CCNc1cccc2sc3ccc(O)cc3c(=O)c12`
Response line: 6

====

# procedure_details: NCI Yeast Anticancer Drug Screen. Data for the CLN2oe strain (AID 163);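 note: 0% = growth of vehicle-only control cultures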
# measurement_setup: S. cerevisiae CLN2oe strain, at 3.7 µM
The panel holds about 79,000 compounds, 15% with a hit somewhere; the sample as a whole holds those more often. Calls of active or inactive are those of the source. Cut-off read from the data, not from the text of the source: active = growth inhibition above about 70%; inactive = the rest.
Write down the outcome that applies. Available outcomes: YES = active, NO = inactive

Prompt line: What is the recorded call for this molecule in the test? CC(=O)OCC1OC(O[C@H]2C=C[C@@H](C(=O)OCc3ccccc3)n3c(=O)n(-c4ccccc4)c(=O)n32)C(OC(C)=O)C(OC(C)=O)C1OC(C)=O (stereo not given in full)
Response line: NO

Prompt line: What is the recorded call for this molecule in the test? `Oc1ccccc1N=Cc1ccc(Cl)cc1`
Response line: NO

Prompt line: What is the recorded call for this molecule in the test? `CC(=O)CC(=O)/C=C/c1cccs1`
Response line: NO

Prompt line: What is the recorded call for this molecule in the test? `O=C1c2ccccc2CCC1(Br)Br`
Response line: NO

Prompt line: What is the recorded call for this molecule in the test? `Cc1cccc(/C=N/NC(=S)N(C)CCc2ccccn2)n1`
Response line: YES

Prompt line: What is the recorded call for this molecule in the test? CC1=CCCC2C1(C)CCC(C)C2(C)Cc1cc(O)ccc1O (stereo not given)
Response line: NO

Prompt line: What is the recorded call for this molecule in the test? `CCCCC(=O)c1c(O)nc2sccn2c1=O`
Response line: NO

Prompt line: What is the recorded call for this molecule in the test? `O=[N+]([O-])c1cc(S(=O)(=O)Nc2ccccc2)ccc1Cl`
Response line: NO

Prompt line: What is the recorded call for this molecule in the test? `CN(C)c1ccc(N=Nc2ccccn2)cc1`
Response line: NO

Prompt line: What is the recorded call for this molecule in the test? `Cc1nc2c(ncn2CCO)c(=O)[nH]1`
Response line: NO
